Reference source: patent US7462600B2

Exercise: for every item that follows, state its recorded MIC S. pneumo. 1175.
Test system: Streptococcus pneumoniae 1175
Type: cell-based
Settings: Streptococcus pneumoniae 1175; microtiter broth dilution
Source text: The assay described herein includes a panel of bacterial strains assembled to include a variety of target pathogenic species, including representatives of macrolide resistance mechanisms that have been characterized. In many cases, both the macrolide-susceptible parent strain and the macrolide-resistant strain derived from it are available to provide a more accurate assessment of the compound's ability to circumvent the resistance mechanism. […]

Examples with their reported MIC S. pneumo. 1175 follow.
>>> observed_value("CCC1OC(=O)C(C)C(=O)C(C)C(OC2OC(C)CC(N(C)C)C2O)C(C)(OC)CC(C)C(=O)C(C)C2N(C3CN(Cc4cn[nH]c4)C3)C(=O)OC12C (stereo not shown) [Example 1.19, (1H-pyrazol-4-yl)methyl]")
"4 µg/mL"
>>> observed_value("CCC1OC(=O)C(C)C(=O)C(C)C(OC2OC(C)CC(N(C)C)C2O)C(C)(OC)CC(C)C(=O)C(C)C2N(CC3CN(Cc4n[nH]c5ncccc45)C3)C(=O)OC12C.O=CO (stereo not shown) [4.43]")
"1 µg/mL"
>>> observed_value("CCC1OC(=O)C(C)C(=O)C(C)C(OC2OC(C)CC(N(C)C)C2O)C(C)(OC)CC(C)C(=O)C(C)C2N(C3CN(S(=O)(=O)c4ccc(Oc5ccccn5)cc4)C3)C(=O)OC12C (stereo not shown) [Example 3.34, 4-(pyridin-2-yloxy)benzenesulfonyl]")
"0.12 µg/mL"

input: Given the entry CCC1OC(=O)C(C)C(=O)C(C)C(OC2OC(C)CC(N(C)C)C2O)C(C)(OC)CC(C)C(=O)C(C)C2N(C3CN(Cc4cnn(-c5cccc(F)c5)c4)C3)C(=O)OC12C (stereo not shown) [Example 1.41, (1-[3-fluorophenyl]-pyrazol-4-yl)methyl] , report its measured MIC S. pneumo. 1175.
output: <0.06 µg/mL

* * *

Consider the following compounds; for each one, report its MIC S. pneumo. 1175.
test system: Streptococcus pneumoniae 1175; type: cell-based; settings: S. pneumoniae 1175 (mefA); microtiter broth dilution
Answers are plain numbers, in µg/mL.

Some solved cases for reference:
>>> observed_value("CC[C@H]1OC(=O)[C@H](C)C(=O)[C@H](C)[C@@H](O[C@@H]2O[C@H](C)C[C@H](N(C)C)[C@H]2O)[C@](C)(OC)C[C@@H](C)C(=O)[C@H](C)[C@H]2N(CC3(O)CN(C(=O)c4cc5ccccn5n4)C3)C(=O)O[C@]12C.O=CO [7.30]")
0.25
>>> observed_value("CC[C@H]1OC(=O)[C@H](C)C(=O)[C@H](C)[C@@H](O[C@@H]2O[C@H](C)C[C@H](N(C)C)[C@H]2O)[C@](C)(OC)C[C@@H](C)C(=O)[C@H](C)[C@H]2N(CC3(O)CN(Cc4c[nH]c5ncccc45)C3)C(=O)O[C@]12C [7.04]")
1
>>> observed_value("CC[C@H]1OC(=O)[C@H](C)C(=O)[C@H](C)[C@@H](O[C@@H]2O[C@H](C)C[C@H](N(C)C)[C@H]2O)[C@](C)(OC)C[C@@H](C)C(=O)[C@H](C)[C@H]2N(CC3(O)CN(C(=O)c4cc5cccnc5[nH]4)C3)C(=O)O[C@]12C [7.26]")
0.25

For every listed record, write down its MIC S. pneumo. 1175.
1. CCC1OC(=O)C(C)C(=O)C(C)C(OC2OC(C)CC(N(C)C)C2O)C(C)(OC)CC(C)C(=O)C(C)C2N(CC3CCCN3C(=O)c3cn4cccnc4n3)C(=O)OC12C (stereo not shown) [10.43]
2. CCC1OC(=O)C(C)C(=O)C(C)C(OC2OC(C)CC(N(C)C)C2O)C(C)(OC)CC(C)C(=O)C(C)C2N(CC3CCN(Cc4ccno4)C3)C(=O)OC12C (stereo not shown) [13.06]
3. CCC1OC(=O)C(C)C(=O)C(C)C(OC2OC(C)CC(N(C)C)C2O)C(C)(OC)CC(C)C(=O)C(C)C2N(CC3CCN(C(=O)c4cc5ccccn5n4)C3)C(=O)OC12C (stereo not shown) [13.16]
4. CCC1OC(=O)C(C)C(=O)C(C)C(OC2OC(C)CC(N(C)C)C2O)C(C)(OC)CC(C)C(=O)C(C)C2N(C3CCN(Cc4cccc5ncccc45)C3)C(=O)OC12C (stereo not shown) [Example 9.02]
5. CC[C@H]1OC(=O)[C@H](C)C(=O)[C@H](C)[C@@H](O[C@@H]2O[C@H](C)C[C@H](N(C)C)[C@H]2O)[C@](C)(OC)C[C@@H](C)C(=O)[C@H](C)[C@H]2N(CC3(O)CN(Cc4c[nH]c(=O)[nH]c4=O)C3)C(=O)O[C@]12C [7.09]
6. CCC1OC(=O)C(C)C(=O)C(C)C(OC2OC(C)CC(N(C)C)C2O)C(C)(OC)CC(C)C(=O)C(C)C2N(CC3CCCN3C(=O)c3cn4ccccc4n3)C(=O)OC12C (stereo not shown) [10.54]
7. CCC1OC(=O)C(C)C(=O)C(C)C(OC2OC(C)CC(N(C)C)C2O)C(C)(OC)CC(C)C(=O)C(C)C2N(CC3CCN(C(=O)c4cnc5ccccc5c4)C3)C(=O)OC12C (stereo not shown) [11.17]

output:
0.25
0.5
1
0.12
16
0.25
2

* * *

tested on: Streptococcus pneumoniae 1095; assay type: cell-based; settings: S. pneumoniae 1095 (ermB); microtiter broth dilution
READOUT NAME: MIC S. pneumo. 1095 (µg/mL)
Numbers only, in µg/mL.

Previously resolved entries follow.
>>> observed_value("CCC1OC(=O)C(C)C(=O)C(C)C(OC2OC(C)CC(N(C)C)C2O)C(C)(OC)CC(C)C(=O)C(C)C2N(C3CCN(Cc4n[nH]c5ccccc45)C3)C(=O)OC12C (centres unmarked)")
0.25
>>> observed_value("CC[C@H]1OC(=O)[C@H](C)C(=O)[C@H](C)[C@@H](O[C@@H]2O[C@H](C)C[C@H](N(C)C)[C@H]2O)[C@](C)(OC)C[C@@H](C)C(=O)[C@H](C)[C@H]2N(CC3(O)CN(Cc4c[nH]c(=O)[nH]c4=O)C3)C(=O)O[C@]12C")
64

input: Give its MIC S. pneumo. 1095 value. Item: CCC1OC(=O)C(C)C(=O)C(C)C(OC2OC(C)CC(N(C)C)C2O)C(C)(OC)CC(C)C(=O)C(C)C2N(C3CCN(Cc4cncc5ccccc45)C3)C(=O)OC12C (centres unmarked)
output: 8

* * *

tested on: Haemophilus influenzae 1218; test: MIC, microtiter broth dilution (NCCLS M100-S14), H. influenzae 1218 (susceptible); format: cell-based; details: Haemophilus influenzae 1218
Strictly below 0.5 µg/mL in MIC H. influenzae 1218: t. Otherwise: f.

>>> assigned_label("CCC1OC(=O)C(C)C(=O)C(C)C(OC2OC(C)CC(N(C)C)C2O)C(C)(OC)CC(C)C(=O)C(C)C2N(C3CN(Cc4cnn(-c5cccc(F)c5)c4)C3)C(=O)OC12C (stereo not drawn) [Example 1.41, (1-[3-fluorophenyl]-pyrazol-4-yl)methyl]")
"t"
>>> assigned_label("CC[C@H]1OC(=O)[C@H](C)C(=O)[C@H](C)[C@@H](O[C@@H]2O[C@H](C)C[C@H](N(C)C)[C@H]2O)[C@](C)(OC)C[C@@H](C)C(=O)[C@H](C)[C@H]2N(CC3(C)CN(Cc4cccc5nccnc45)C3)C(=O)O[C@]12C [6.05]")
"f"
>>> assigned_label("CCC1OC(=O)C(C)C(=O)C(C)C(OC2OC(C)CC(N(C)C)C2O)C(C)(OC)CC(C)C(=O)C(C)C2N(C3CN(S(=O)(=O)c4ccc(OC)c5nccnc45)C3)C(=O)OC12C (stereo not drawn) [Example 3.112]")
"f"
>>> assigned_label("CCC1OC(=O)C(C)C(=O)C(C)C(OC2OC(C)CC(N(C)C)C2O)C(C)(OC)CC(C)C(=O)C(C)C2N(C3CN(S(=O)(=O)c4cnn(-c5ccccn5)c4)C3)C(=O)OC12C (stereo not drawn) [Example 3.21, 1-(pyridin-2-yl)-1H-pyrazole-4-sulfonyl]")
"f"

input: Consider the compound CCC1OC(=O)C(C)C(=O)C(C)C(OC2OC(C)CC(N(C)C)C2O)C(C)(OC)CC(C)C(=O)C(C)C2N(CC3CN(C(=O)c4ccnc5nc[nH]c45)C3)C(=O)OC12C.O=CO (stereo not drawn) [4.45] . Is its MIC H. influenzae 1218 strictly less than 0.5 µg/mL?
output: f

input: Does CCC1OC(=O)C(C)C(=O)C(C)C(OC2OC(C)CC(N(C)C)C2O)C(C)(OC)CC(C)C(=O)C(C)C2N(C3CN(Cc4cccc5cccnc45)C3)C(=O)OC12C (stereo not drawn) [Example 1.05, (quinolin-8-yl)methyl] have MIC H. influenzae 1218 strictly under 0.5 µg/mL?
output: t

* * *

system: Streptococcus pneumoniae 1175; type: cell-based; conditions: S. pneumoniae 1175 (mefA); microtiter broth dilution
READOUT NAME: MIC S. pneumo. 1175 (µg/mL)
Answers are plain numbers, in µg/mL.

// below: answered compounds
>>> observed_value("CCC1OC(=O)C(C)C(=O)C(C)C(OC2OC(C)CC(N(C)C)C2O)C(C)(OC)CC(C)C(=O)C(C)C2N(CC3CCCN3C(=O)c3cccc4ncccc34)C(=O)OC12C (stereo not drawn) [Example 12.11]")
1
>>> observed_value("CC[C@H]1OC(=O)[C@H](C)C(=O)[C@H](C)[C@@H](O[C@@H]2O[C@H](C)C[C@H](N(C)C)[C@H]2O)[C@](C)(OC)C[C@@H](C)C(=O)[C@H](C)[C@H]2N(CC3(C)CN(C(=O)c4cncc5ccccc45)C3)C(=O)O[C@]12C.O=CO [6.20]")
0.5

Would you kindly look at the next entry?
input: Param readout= MIC S. pneumo. 1175; system= Streptococcus pneumoniae 1175; entry= CCC1OC(=O)C(C)C(=O)C(C)C(OC2OC(C)CC(N(C)C)C2O)C(C)(OC)CC(C)C(=O)C(C)C2N(CC3CCN(Cc4c[nH]c5cnccc45)C3)C(=O)OC12C (stereo not drawn) [13.03] ; returns value.
output: 4
